# TARGET ENTITY: HIV-1 RRE RNA
# EXPERIMENT SUMMARY: HIV-1 RRE RNA competition binding assay (fluorescence polarization, Rev peptide probe)
# CONDITION CONTEXT: 100 nM RRE RNA, 10 nM Rev peptide, 25° C., 1 hour; Table 16
For each of the molecules below, state its IC50.
One number for each entry, in µM.

Below, 2 molecules whose answers are already recorded.
# MOLECULE, REPORTED ENDPOINT, UNIT TEXT, REPORTED RESULT
records = [
    ("CN1CCN(c2ccc3nc(-c4ccc(OCc5cn(C[C@H]6OC(OC7C(O)[C@H](N)CC(N)[C@H]7O[C@H]7OC(CN)[C@@H](O)C(O)C7N)C(O)C6O[C@H]6OC(CN)[C@@H](O)C(O)C6N)nn5)cc4)[nH]c3c2)CC1 (stereo partly shown) [DPA123]", "IC50", "µM", 0.768),
    ("CN1CCN(c2ccc3nc(-c4ccc(OCCn5cc(CCCCc6cn(C[C@H]7OC(OC8C(O)[C@H](N)CC(N)[C@H]8O[C@H]8OC(CN)[C@@H](O)C(O)C8N)C(O)C7O[C@H]7OC(CN)[C@@H](O)C(O)C7N)nn6)nn5)cc4)[nH]c3c2)CC1 (stereo partly shown) [DPA121]", "IC50", "µM", 30.5),
]

Inquiry: Check HIV-1 RRE RNA data and give IC50 for CN1CCN(c2ccc3nc(-c4ccc(OCCn5cc(CCCc6cn(C[C@H]7OC(OC8C(O)[C@H](N)CC(N)[C@H]8O[C@H]8OC(CN)[C@@H](O)C(O)C8N)C(O)C7O[C@H]7OC(CN)[C@@H](O)C(O)C7N)nn6)nn5)cc4)[nH]c3c2)CC1 (stereo partly shown) [DPA120] .
Reply text: 15.3

###

# TARGET ENTITY: HIV-1 TAR RNA
# EXPERIMENT SUMMARY: HIV-1 TAR RNA competition FRET binding assay (Tat peptide probe)
# CONDITION CONTEXT: 100 nM TAR RNA, 100 nM Tat peptide, 25° C., 60 min; Table 17
# Description: Before used, HIV-1 TAR RNA (5′-GGC AGA UCUGAG CCU GGG AGC UCU CUG CC-3′, Thermo Scientific) in 10 μM batch in sterile water was heated to 95° C. for 4.5 min, and then cooled rapidly in ice bath for 5 min. […] The relative affinity of each polyamine for HIV-1 TAR RNA was determined using Fluorescence Resonance Energy Transfer (FRET)-based competitive binding assay with a fluorescein-labeled HIV-1 Tat peptide as described in the literature. […]
Sorting guide: entries reporting IC50 beneath 4 µM go in the true (1) pile, the rest go in the false (0) pile.

Previously resolved entries follow.
# COMPOUND, TARGET ENTITY, ASSIGNED CATEGORY
data = [
    ("CN1CCN(c2ccc3nc(-c4ccc(OCc5cn(CCCCCCn6cc(CCCCc7cn(C[C@H]8OC(OC9C(O)[C@H](N)CC(N)[C@H]9O[C@H]9OC(CN)[C@@H](O)C(O)C9N)C(O)C8OC8OC(CN)C(O)C(O)C8N)nn7)nn6)nn5)cc4)[nH]c3c2)CC1 (stereo partly shown)", "HIV-1 TAR RNA", "false (0)"),
    ("CN1CCN(c2ccc3nc(-c4ccc(OCc5cn(CCCCCCCCCCn6cc(CCCCc7cn(C[C@H]8OC(OC9C(O)[C@H](N)CC(N)[C@H]9O[C@H]9OC(CN)[C@@H](O)C(O)C9N)C(O)C8O[C@H]8OC(CN)[C@@H](O)C(O)C8N)nn7)nn6)nn5)cc4)[nH]c3c2)CC1 (stereo partly shown)", "HIV-1 TAR RNA", "true (1)"),
    ("NCC1O[C@H](OC2C(N)C[C@@H](N)C(O)[C@H]2O[C@@H]2O[C@H](Cn3cc(COCCCCCCCCOCc4cn(C[C@H]5O[C@@H](O[C@H]6C(O[C@H]7OC(CN)C(O)[C@H](O)C7N)C(N)C[C@@H](N)C6O)[C@@H](O)C5O[C@H]5O[C@@H](CN)C(O)C(O)C5N)nn4)nn3)C(O[C@H]3O[C@@H](CN)C(O)C(O)C3N)[C@@H]2O)C(N)[C@@H](O)C1O (stereo partly shown)", "HIV-1 TAR RNA", "true (1)"),
    ("CN1CCN(c2ccc3nc(-c4ccc(OCc5cn(CCCCCCCCn6cc(CCCCc7cn(C[C@H]8OC(OC9C(O)[C@H](N)CC(N)[C@H]9O[C@H]9OC(CN)[C@@H](O)C(O)C9N)C(O)C8O[C@H]8OC(CN)[C@@H](O)C(O)C8N)nn7)nn6)nn5)cc4)[nH]c3c2)CC1 (stereo partly shown)", "HIV-1 TAR RNA", "false (0)"),
    ("CN1CCN(c2ccc3[nH]c(-c4ccc5[nH]c(-c6ccc(O)cc6)nc5c4)nc3c2)CC1", "HIV-1 TAR RNA", "false (0)"),
]

Inquiry: Given the entry CN1CCN(c2ccc3nc(-c4ccc(OCCn5cc(CCCc6cn(C[C@H]7OC(OC8C(O)[C@H](N)CC(N)[C@H]8O[C@H]8OC(CN)[C@@H](O)C(O)C8N)C(O)C7O[C@H]7OC(CN)[C@@H](O)C(O)C7N)nn6)nn5)cc4)[nH]c3c2)CC1 (stereo partly shown) , would its reported IC50 be below 4 µM?
Reply text: true (1)

Inquiry: Given the entry NCC1O[C@H](OC2C(N)C[C@@H](N)C(O)[C@H]2O[C@@H]2O[C@H](Cn3cc(COCCCCCCCCCCCCOCc4cn(C[C@H]5O[C@@H](O[C@H]6C(O[C@H]7OC(CN)C(O)[C@H](O)C7N)C(N)C[C@@H](N)C6O)[C@@H](O)C5O[C@H]5O[C@@H](CN)C(O)C(O)C5N)nn4)nn3)C(O[C@H]3O[C@@H](CN)C(O)C(O)C3N)[C@@H]2O)C(N)[C@@H](O)C1O (stereo partly shown) , would its reported IC50 be below 4 µM?
Reply text: true (1)

Where do the numbers come from? From patent US9492554B2.
